Target: T1, human DC-SIGN (full length, expressed on cells) (human, UniProt Q9NNX6 1-404)
T1 construct: Also used for DC-SIGN on human monocyte-derived cells and on cells of human DC-SIGN transgenic mice in the functional rows; also called CD209; human DC-SIGN CHO
T1 sequence: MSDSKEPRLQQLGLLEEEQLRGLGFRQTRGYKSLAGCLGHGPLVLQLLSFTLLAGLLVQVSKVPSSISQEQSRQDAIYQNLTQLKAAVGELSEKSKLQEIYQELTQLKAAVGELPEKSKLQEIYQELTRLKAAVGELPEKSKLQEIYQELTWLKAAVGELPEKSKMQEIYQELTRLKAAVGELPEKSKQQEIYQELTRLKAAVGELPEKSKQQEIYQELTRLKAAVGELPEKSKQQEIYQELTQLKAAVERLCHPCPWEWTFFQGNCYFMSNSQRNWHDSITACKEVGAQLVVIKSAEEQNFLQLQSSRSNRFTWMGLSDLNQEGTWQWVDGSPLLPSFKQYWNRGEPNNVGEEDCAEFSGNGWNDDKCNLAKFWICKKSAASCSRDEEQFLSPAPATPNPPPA
Assay: flow cytometry, IgG titrated on human DC-SIGN CHO cells
Sorting guide: entries reporting EC50 beneath 0.2 µg/mL go in the Condition met pile, the rest go in the Condition not met pile.

Exam item: Find out if reported EC50 for 914M09 Parental (antibody, human IgG1, kappa, V domains shown) VH: QVQLQESGPGLVKPSETLSLTCAVSGGSISSYYWNLIRQPAGKGLEWIGRIYTSGSTNYNPSLKSRVTMSVDTSKNQFSLKLSSVTAADTAVYYCARDSGGFYYYYGMDVWGQGTTVTVSS VL: DIQLTQSPSFLSASVGDRVTITCRASQGISSYLAWYQQKPGKAPKLLIYAASTLQGGVPSRFSGSGSGTEFTLTISSLQPEDFATYHCQQLNSYPWTFGQGTKVEIKR is less than 0.2 µg/mL
Marked response: Condition met

Exam item: Does the reported EC50 of the following binder sit strictly below 0.2 µg/mL? 952G04 Parental (antibody, V domains shown) VH: QVTLRESGPALVKPTQTLTLTCTFSGFSLSTSGVSVTWIRQPPGKALEWLALIDWDDDKYYSTSLKTRLAISKDTSKNQVVLTMTNMDPVDTATYYCARTPSGSYGRYFDLWGRGTLVTVSS VL: DIQMTQSPSTLSASVGDRVTITCRASQSISTWLAWYQQKPGKAPKLLIYEASSLESGVPSRFSGSGSGTEFTLTISSLQPDDFATYYCQQYNSYWTFGQGTKVEIKR
Marked response: Condition met

Exam item: # check: EC50 < 0.2 µg/mL for 550E03 Parental (antibody, V domains shown, also called 550Ee03) VH: QVTLRESGPALVKPTQTLTLTCTFSGFSLSTSGMSVSWIRQPPGKALEWLALIDWDDDKYYSTSLKTRLTISKDTSKNQVVLTMTNMDPVDTATYYCARMALRHAFDAWGQGTMVTVSS VL: QSVLTQPPSVSGAPGQRVTISCTGSSSNIGAGYDVHWYQQLPGTAPKLLIYVNSNRPSGVPDRFSGSKSGTSASLAITGLQAEDEADYYCQSYDSSLSGWVFGGGTKLTVLG
Marked response: Condition not met

Exam item: Consider 2B2 Chimeric (antibody, V domains shown, Murine variable regions on human constant regions) VH: EVQLQQSGAELVRPGSSVKMSCKTSGYTFTNYGINWVKQRPGQGLEWIGYIYIGNDYTEYNERFKGKATLTSDTSSSTAHIQLNSLTSEDSAIYFCARLYYGSSLYSYAMDYWGQGTSVTVSS VL: DIVMTQAAPSVSVTPGESVSISCRSSKSLLHSSGNTYLYWFLQRPGQSPQLLISRMSNLASGVPDRFSGSGSGTAFTLRISRVEAEDVGVYYCMQHLEYPYTFGGGTKLELKR . Does its EC50 lie strictly below 0.2 µg/mL?
Marked response: Condition not met

Exam item: Please indicate whether the reported EC50 of 906C18 Parental (antibody, V domains shown) VH: EVQLVESGGGLVQPGGSLRLSCAASGFTFNNYWMNWVRQAPGKGLEWVANIRQDGSEKYYVDSVKGRFTISRDNAKNSLFLQMNSLRAEDTAVYYCARERAYCSTTSCPDYSNDYWGQGTLVTVSS VL: EIVMTQSPATLSVSPGERATLSCRASQTINNNLAWFQQKPGQTPRLLIYGASTGATGIPARFSGSGSGTEFTLTISSLQSEDFAVYYCQQYNNWPRGLTFGGGTKVEIKR is strictly below 0.2 µg/mL.
Marked response: Condition not met

Exam item: In plain terms, does 2B2 Hz (antibody, V domains shown, also called humanized 2B2) VH: QVQLVQSGAEVKKPGASVKVSCKASGYTFTNYGINWVRQAPGQRLEWMGYIYIGNDYTEYNERFKGRVTITSDTSASTAYMELSSLRSEDTAVYYCARLYYGSSLYSYAMDYWGQGTTVTVSS VL: DIVMTQSPLSLPVTPGEPASISCRSSKSLLHSSGNTYLYWFLQKPGQSPQLLISRMSNLASGVPDRFSGSGSGTDFTLKISRVEAEDVGVYYCMQHLEYPYTFGGGTKVEIKR come in under 0.2 µg/mL for EC50?
Marked response: Condition met

Exam item: State whether 0.2 µg/mL exceeds EC50 recorded for 958N05 Parental (antibody, V domains shown) VH: QVTLRESGPALVKPTQTLTLTCTFSGFSLSTSGISVSWIRQPPGKALEWLALIDWDDDKYYSTSLKTRLTISKDTSKNQVVLTMTNMDPVDTATYYCARTPSGSYGRYFDLWGRGTLVTVSS VL: DIQLTQSPSTLSASVGDRVTITCRASQSISNWLAWYQQKPGKAPKLLIYKASSLESGVPSRFTGSGSGTEFTLTISSLQPDDFATYYCQQYNSYWTFGQGTKVEIKR .
Marked response: Condition met

Exam item: Hi there! Is EC50 for 960K03 Parental (antibody, V domains shown) VH: QVTLRESGPALVKPTQTLTLTCTFSGFSLSTGGMCVSWIRQPPGKALEWLALIDWDDDKYYSTSLKTRLTISKDTSKNQLVLTMTNMDPVDTATYYCARAHSGSYFDFWGQGTLVTVSS VL: DIQMTQSPSTLSASVGDRVTITCRASQRISNWLAWYQQKPGKAPKLLIYKASSLESGVPSRFSGSGSGTEFTLTISSLQPDDFATYYCQQFNSYWTFGQGTKVEIKR below 0.2 µg/mL, do you know?
Marked response: Condition met
